Source of measurements: ChEMBL document CHEMBL4043164

Test system: MCF7
Test Details: Cytotoxicity against human MCF7 cells assessed as reduction in cell viability incubated for 24 hrs by CCK8 assay
Condition Info: MCF7, 24 h
Attribute Measured: IC50
The number alone won't do; follow it with the unit.

For orientation, consider the following solved cases.
INSERT INTO assay_data (entry_smiles, result) VALUES
  ('O=C1C[C@@H]2CS[C@]3(C(=O)Nc4cccc(Br)c43)[C@H](c3ccc(Br)cc3)[C@H]2CN1c1ccc(F)cc1F', '4.4 µM'),
  ('O=C1C[C@@H]2CS[C@]3(C(=O)Nc4cccc(Br)c43)[C@H](c3ccc(Br)cc3)[C@H]2CN1c1ccc(-c2ccccc2)cc1', '6.9 µM'),
  ('Cc1ccc(N2C[C@H]3[C@@H](CS[C@]4(C(=O)Nc5cccc(Br)c54)[C@@H]3c3ccc(Br)cc3)CC2=O)cc1', '3 µM');

Which value of IC50 has been reported for "CN1CCN(c2ccc(N3C[C@H]4[C@@H](CS[C@]5(C(=O)Nc6cccc(Br)c65)[C@@H]4c4ccc(Br)cc4)CC3=O)cc2)CC1" in the records? 5.9 µM

Which value of IC50 has been reported for "O=C1C[C@@H]2CS[C@]3(C(=O)Nc4cccc(Br)c43)[C@H](c3ccc(Br)cc3)[C@H]2CN1c1ccccc1" in the records? 4 µM

---

System: MCF7
Test Details: Cytotoxicity against human MCF7 cells assessed as reduction in cell viability incubated for 24 hrs by CCK8 assay
Condition Info: MCF7, 24 h
Attribute Measured: pIC50
Quick note: pIC50 means taking -log10 of the concentration in moles per liter.

INSERT INTO measurements (entry_smiles, system, readout_number) VALUES
  ('COc1ccc(N2C[C@H]3[C@@H](CS[C@]4(C(=O)Nc5cccc(Br)c54)[C@@H]3c3ccc(Br)cc3)CC2=O)cc1', 'MCF7', 5.52),
  ('O=C1C[C@@H]2CS[C@]3(C(=O)Nc4cccc(Br)c43)[C@H](c3ccc(Br)cc3)[C@H]2CN1c1ccc(Cl)cc1', 'MCF7', 5.38),
  ('COC(=O)C[C@@H]1CS[C@]2(C(=O)Nc3cccc(Br)c32)[C@H](c2ccc(Br)cc2)[C@H]1C=O', 'MCF7', 5.07),
  ('O=C1C[C@@H]2CS[C@]3(C(=O)Nc4cccc(Br)c43)[C@H](c3ccc(Br)cc3)[C@H]2CN1c1ccccc1F', 'MCF7', 5.34),
  ('O=C1C[C@@H]2CS[C@]3(C(=O)Nc4cccc(Br)c43)[C@H](c3ccc(Br)cc3)[C@H]2CN1c1ccc(N2CCOCC2)cc1', 'MCF7', 5.62);

Which value of pIC50 has been reported for "CCOc1ccc(N2C[C@H]3[C@@H](CS[C@]4(C(=O)Nc5cccc(Br)c54)[C@@H]3c3ccc(Br)cc3)CC2=O)cc1" in the records? 5.49

Which value of pIC50 has been reported for "O=C1C[C@@H]2CS[C@]3(C(=O)Nc4cccc(Br)c43)[C@H](c3ccc(Br)cc3)[C@H]2CN1c1ccc(F)cc1" in the records? 5.40

Which value of pIC50 has been reported for "CCOc1cccc(N2C[C@H]3[C@@H](CS[C@]4(C(=O)Nc5cccc(Br)c54)[C@@H]3c3ccc(Br)cc3)CC2=O)c1" in the records? 5.44

Which value of pIC50 has been reported for "CCN(CC)c1ccc(N2C[C@H]3[C@@H](CS[C@]4(C(=O)Nc5cccc(Br)c54)[C@@H]3c3ccc(Br)cc3)CC2=O)cc1" in the records? 5.74

Which value of pIC50 has been reported for "O=C1C[C@@H]2CS[C@]3(C(=O)Nc4cccc(Br)c43)[C@H](c3ccc(Br)cc3)[C@H]2CN1c1cccc(F)c1" in the records? 5.42
